Origin of values: ChEMBL document CHEMBL1157539

# System: Plasmodium falciparum
# Method: GSK_TCMDC: Inhibition of Plasmodium falciparum Dd2 in whole red blood cells, using parasite LDH activity as an index of growth. Test compounds present at 2uM
# Type: functional
Property label: Inhibition (%)
Give the value, in units of %, as a plain number.

Cc1cnc(-c2ccc(NC(=O)c3coc4ccc(N5CC(C)N(C)C(C)C5)cc34)cc2)o1.Cl (centres undefined) ... 39

*Q* Data request, read-out Inhibition, for CNC(=O)COC(=O)c1c2c(nc3ccccc13)C(=Cc1ccc3c(c1)OCO3)CCC2
*A* 36

*Q* Data request, read-out Inhibition, for O=C(NCCCCN1CCC(c2ccc3c(c2OCC2COCO2)CCCC3)CC1)c1ccc(-c2ccc(C(F)(F)F)cc2)cc1 (centres undefined)
*A* 45

*Q* Data request, read-out Inhibition, for Cc1cccc(CN2CCCN(Cc3ccc(C(=O)Nc4ccc(Cl)cc4)cc3)CC2)c1.O=C(O)C(F)(F)F
*A* 17

---

# Test system: HepG2
# Method: GSK_TCMDC: Percent inhibition of human HepG2 cell line. Test compounds present at 10uM.
# Format: functional
Returns one of Met or Not met; Met when Inhibition is >= 30%.

*Q* Evaluate O=C(Nc1ccc(F)c(C(F)(F)F)c1)N[C@H]1CCN(CCCCCNC(=O)C2CC2c2ccc(Cl)c(Cl)c2)C1 (stereo partly drawn) : Inhibition at minimum 30%?
*A* Met

*Q* Evaluate Cc1cccc2nc(-c3ccc(-c4cccc(NC(=O)Nc5ccc6c(c5)OCO6)c4)cc3)[nH]c12 : Inhibition at minimum 30%?
*A* Not met

*Q* Evaluate CCN(CC)CCN(Cc1ccc(-c2ccc(C(F)(F)F)cc2)cc1)C(=O)CN1C(CCc2cccc(F)c2F)=NS(=O)(=O)c2ccccc21 : Inhibition at minimum 30%?
*A* Met

*Q* Evaluate N#Cc1ccc(N(CCOc2ccc(Cl)c(F)c2)Cc2ccccc2C(F)(F)F)cc1C(F)(F)F : Inhibition at minimum 30%?
*A* Not met

*Q* Evaluate Cl.N=C(N)c1ccc(C=CC(=O)NCC(O)CNC(=O)C=Cc2ccc(C(=N)N)cc2)cc1 (stereo not drawn) : Inhibition at minimum 30%?
*A* Not met

*Q* Evaluate COc1c(Br)cc(Br)cc1C(C)=O : Inhibition at minimum 30%?
*A* Not met

*Q* Evaluate O=C(Nc1cccc(-c2ccc(-c3nc4ccccc4[nH]3)s2)c1)c1ccncc1 : Inhibition at minimum 30%?
*A* Met

*Q* Evaluate COC(=O)c1c(NC(=O)c2cccc(C(F)(F)F)c2)sc2c1CCN(Cc1ccccc1)C2.Cl : Inhibition at minimum 30%?
*A* Not met

*Q* Evaluate CCC(C)NC(=O)Nc1ccc(-c2cccc(-c3nc4ccccc4[nH]3)c2)cc1 (stereo not drawn) : Inhibition at minimum 30%?
*A* Met

*Q* Evaluate CC(C)CNC(=O)c1ccnc(-c2ccc(CNC3Cc4ccccc4C3)cc2)c1.O=C(O)C(F)(F)F : Inhibition at minimum 30%?
*A* Not met

*Q* Evaluate CCCCCCNc1cc(C)nc(NC(=N)Nc2cccc(C(F)(F)F)c2)n1 : Inhibition at minimum 30%?
*A* Met

*Q* Evaluate C(=C(c1cccs1)c1cccs1)c1ccc(CNC2CCN(Cc3ccccc3)CC2)cc1.Cl : Inhibition at minimum 30%?
*A* Met

*Q* Evaluate O=C(N[C@@H](CC1CCCCC1)C(=O)NC1CCCCC1)c1ccc(O)c(-c2cccc(C(F)(F)F)c2)c1 : Inhibition at minimum 30%?
*A* Not met

*Q* Evaluate CCCCc1cc(NCC)nc(Nc2ccc(F)cc2)n1 : Inhibition at minimum 30%?
*A* Met

*Q* Evaluate COc1cc(NC(=O)Nc2cc(C)nc3ccccc23)cc(OC)c1 : Inhibition at minimum 30%?
*A* Not met

---

// values below are reported Inhibition
# Tested on: HepG2
# Method: GSK_TCMDC: Percent inhibition of human HepG2 cell line. Test compounds present at 10uM.
# Assay type: functional
Give the value, in units of %, as a plain number.

O=C(Nc1ccc(N2CCCN(Cc3cccc(F)c3)CC2)cc1)c1ccccc1.O=C(O)C(F)(F)F ... 25
O=C(/C=C/c1ccc(Cl)c(Cl)c1)NCCCCCN1CCC(NC(=O)c2ccc(F)cc2F)CC1 ... 17
CN(CCO)Cc1ccc(-c2ccc(NS(=O)(=O)c3cccc4cccnc34)cc2)cc1.O=C(O)C(F)(F)F ... 28
COc1cccc(N(CCCN2C(=O)c3cccc4cccc(c34)C2=O)C(=O)c2ccccc2C)c1 ... 20
O=C(Nc1ccccc1)Nc1ccc(-c2cccc(-c3nc4cc(C(F)(F)F)ccc4[nH]3)c2)cc1 ... 59
CCC(C)OC(=O)C1=C(C)NC2=C(C(=O)CC(c3ccc(OC)c(OC)c3)C2)C1c1ccc(C)o1 (stereo not drawn) ... 6
CC(C)c1ccc(CN2CCC(NC(=O)c3ccc(-c4cccc(F)c4)s3)CC2)cc1.O=C(O)C(F)(F)F ... 47

*Q* Data request, read-out Inhibition, for COc1nc2c(CCN3CC[C@H](NCc4cc(C#N)c5c(c4)CCO5)[C@H](O)C3)ccnc2cc1F
*A* 31

---

# Tested on: Plasmodium falciparum
# Method: GSK_TCMDC: Inhibition of Plasmodium falciparum 3D7 in whole red blood cells, using parasite LDH activity as an index of growth. Test compounds present at 2uM
# Assay type: functional
Property label: Inhibition (%)
Give the value, in units of %, as a plain number.

Some entries whose results are on file:
O=C(N[C@H]1CCN(Cc2ccc(OCCCN3CCCCC3)cc2)C1)c1ccc2ccccc2c1 ... 97
O=S(=O)(Nc1cccc(CCN2CCC(N3CCCCC3)CC2)c1)c1ccc(Oc2ccccc2)cc1 ... 100
CN(C)CCCNc1ncnc2c1[nH]c1ccc(F)cc12 ... 100
Cc1cc(=O)c(-c2ccc(Oc3cccc(Cl)c3)cc2)c(C)[nH]1 ... 95

*Q* Param readout = Inhibition; param system = Plasmodium falciparum; param query = COc1cc(NCCCNC(=O)c2ccc(Cl)c(Cl)c2)nc2ccccc12 ; response: value
*A* 99

---

// values below are reported Inhibition
# System: HepG2
# Method: GSK_TCMDC: Percent inhibition of human HepG2 cell line. Test compounds present at 10uM.
# Format: functional
Give the value, in units of %, as a plain number.

Some entries whose results are on file:
COc1ccc(Cl)cc1N1CCN(CCCNC(=O)c2ccc(-c3nc4cc(Cl)c(F)cc4[nH]3)s2)CC1 ... 12
CN(C)CCCOC(=O)c1cc2cc(-c3ccccc3)ccc2n1S(=O)(=O)Cc1ccccc1.Cl ... 13
Oc1ccc2[nH]c(-c3ccc(F)cc3F)nc2c1CN1CCC(O)(c2ccccc2)CC1 ... 16

*Q* Param readout = Inhibition; param system = HepG2; param query = Cc1noc(C)c1-c1ccc2c(Nc3ccccc3C(C)(C)C)c(C(=O)NCc3ccc(OC(C)C)cc3)cnc2c1.Cl ; response: value
*A* 0

---

# Tested on: Plasmodium falciparum
# Method: GSK_TCMDC: Inhibition of Plasmodium falciparum 3D7 in whole red blood cells, using parasite LDH activity as an index of growth. Test compounds present at 2uM
# Type: functional
Property label: Inhibition (%)
Give the value, in units of %, as a plain number.

Some entries whose results are on file:
Cc1cc(F)ccc1N(c1nc(-c2cc(Cl)ccc2Cl)cs1)C1CCNC1.O=C(O)C(F)(F)F (stereo not given) ... 99
O=C(C1CCCCC1)N1CCOC(CCN2CCC(c3ccccc3)CC2)(c2ccc(Cl)c(Cl)c2)C1 (stereo not given) ... 92
CC(CN1CCN(C)CC1)C(=O)Nc1ccc(-c2ccc(-c3nc4ccccc4[nH]3)cc2)cc1 (stereo not given) ... 92

*Q* Data request, read-out Inhibition, for CCOc1cc(C(=O)Nc2ccccc2N2CCN(S(C)(=O)=O)CC2)cc(OCC)c1OCC
*A* 91

*Q* Data request, read-out Inhibition, for COc1cc2ncnc(Nc3ccc(OCc4ccccc4Br)c(Cl)c3)c2cc1OC.Cl
*A* 96

---

// values below are reported Inhibition
# System: Plasmodium falciparum
# Method: GSK_TCMDC: Inhibition of Plasmodium falciparum Dd2 in whole red blood cells, using parasite LDH activity as an index of growth. Test compounds present at 2uM
# Format: functional
Please don't drop the unit; write it after the number.

CCOC(=O)NCCSC(C)(C)[C@H](NC(=O)[C@H](Cc1cc2ccccc2s1)[C@H](CC)N(O)C=O)C(=O)Nc1nccs1 ... 98%
O=C(c1cc(-c2ccco2)n[nH]1)N1CCN(S(=O)(=O)c2ccc(Cl)cc2)CC1 ... 95%
COc1ccc2ncc(F)c(CCN3CC[C@@H](CNCc4ccc5c(c4C)OCCO5)C3)c2n1.Cl ... 11%

*Q* Param readout = Inhibition; param system = Plasmodium falciparum; param query = O=[N+]([O-])c1cccc(C=NNc2nc(=Nc3ccccc3)[nH]c(=Nc3ccccc3)[nH]2)c1 ; response: value
*A* 55%
